system: ATP; test: switch fluorescence ratio, 500 uM ATP over buffer (Cy3 cluster intensity, sum of 5 cycles each) (fold (ratio)); higher = stronger signal-on switching upon ATP binding; sequences stand for … in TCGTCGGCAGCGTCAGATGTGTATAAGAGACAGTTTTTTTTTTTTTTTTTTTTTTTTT…TC; settings: aptamer strand: ATP DNA aptamer (quencher-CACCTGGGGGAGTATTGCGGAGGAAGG + anchor), 100 nM annealed; ATP concentration: 500 uM;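 note: ATP exposure 15 min at 22 °C before imaging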
reportedProperty: switch fluorescence ratio

Solved entries (count: 10):
1) AGGCTGGAGG    1.01
2) TTGTAGGAGG    0.981
3) CCGTCGGTCG    1
4) AGTTGGCTTT    1.02
5) ATATTTAACC    1.02
6) TGTGGGGGGA    0.983
7) TGCATGGGAG    1
8) ATAGACTAGA    0.986
9) TAATATAGTT    1.01
10) AAGAATATCA    1.02

Reported switch fluorescence ratio of TTTACGAGGT : 1.01

Reported switch fluorescence ratio of TTCTGTGGTG : 1.01

# credit: the supplement of paper PMC10126150
